Tested on: MALME-3M melanoma
Test: NCI tumour cell line growth inhibition, 48 h; in the data active = GI50 below about 0.43 µM; inactive = the rest
Please answer using one outcome listed in active, inactive

Examples with answers:
Ask | Check the results log: what was the call for C/C(=C\c1ccn(-c2ccccc2N)n1)[C@@H]1C[C@@H]2O[C@]2(C)CCC[C@H](C)[C@H](O)[C@@H](C)C(=O)C(C)(C)[C@@H](O)CC(=O)O1 ?
Reply | active

Ask | Check the results log: what was the call for CCCCNNC(=O)c1ccc(Br)cc1 ?
Reply | inactive

Ask | Check the results log: what was the call for CCC1(O)CC(OC2CC(N(C)C)C(OC3CC(O)C(OC4OC(C)C(=O)C=C4N)C(C)O3)C(C)O2)c2c(cc3c(c2O)C(=O)c2c(O)cccc2C3=O)C1C(=O)OC (centres undefined) ?
Reply | active

Ask | Check the results log: what was the call for CN(C)c1ccc(Nc2c3ccccc3nc3ccccc23)cc1 ?
Reply | inactive

Ask | Check the results log: what was the call for COc1c(C(C)=O)c(OCCCCOc2c(C(C)=O)c(OC)c3ccoc3c2OC)c(OC)c2occc12 ?
Reply | inactive

New cases:
Ask | Check the results log: what was the call for [2H]C([2H])([2H])NC(=O)c1nnc(NC(=O)C2CC2)cc1Nc1cccc(-c2ncn(C)n2)c1OC ?
Reply | inactive

Ask | Check the results log: what was the call for COc1ccc(/C=C(/c2ccccc2)[N+](=O)[O-])c(OC)c1 ?
Reply | inactive

Ask | Check the results log: what was the call for CN(C)C(=O)Nc1nc2cc(Cl)c(Cl)cc2[nH]1 ?
Reply | inactive

Ask | Check the results log: what was the call for O=C(NCCN1CCOCC1)OCc1nc2nc(Cl)nc(N3CCOCC3)c2[nH]1 ?
Reply | inactive

====

Tested on: BT-549 breast
Test: NCI tumour cell line growth inhibition, 48 h
Mark Yes for reported TGI of 30 µM or greater; mark No for anything smaller.

Ask | In plain terms: is recorded TGI at least 30 µM for COc1cc2c(cc1OC)-c1ncc3c(OC)ccc(OC)c3c1C2 ?
Reply | Yes

Ask | In plain terms: is recorded TGI at least 30 µM for COc1ccccc1/C=C1\COc2ccc(-c3ccccc3)cc2C1=O ?
Reply | No

====

System: T-47D breast
Experiment: NCI tumour cell line growth inhibition, 48 h
recorded-endpoint: TGI

Please review the following examples before continuing.
Ask | Give its TGI value. Item: FC(F)(F)c1cc(N(C2c3ccccc3C=Cc3ccccc32)P(Cl)Cl)cc(C(F)(F)F)c1
Reply | 56.4 µM

Ask | Give its TGI value. Item: CC1C(NNC(N)=O)Oc2cc3c(cc2C1c1ccccc1O)OCO3 (stereo not given)
Reply | > 100 µM

Ask | Give its TGI value. Item: COc1cccc(N=N/C(=N/NC(=O)c2ccc(C)cc2)c2ccc(N(CCC#N)CCC#N)cc2OC)c1
Reply | > 100 µM

Ask | Give its TGI value. Item: CCCCc1ccc(Nc2ncc3ncn(COCCO)c3n2)cc1
Reply | > 100 µM

Please turn your attention to the following entry.
Ask | Give its TGI value. Item: O=S(=O)(NC1CCCCC1)c1ccc2c(c1)OCCOCCOCCOCCO2
Reply | > 100 µM

====

# Lookup of reported TGI keyed by entry
Tested on: A549 NSCLC
Assay: NCI tumour cell line growth inhibition, 48 h

Ask | Give its TGI value. Item: CN(C)c1ccc(Nc2c3ccccc3nc3ccccc23)cc1
Reply | 1.9 µM

Ask | Give its TGI value. Item: CC(=O)n1cc(C2CC23N=C(c2ccccc2)OC3=O)c2ccccc21 (centres undefined)
Reply | 59.9 µM

Ask | Give its TGI value. Item: C#CC1(O)CCC2C3CCc4cc(Oc5nc(F)nc(-c6c7ccccc7c7n6CCS7)n5)ccc4C3CC[C@@]21C (some centres undefined)
Reply | > 100 µM

Ask | Give its TGI value. Item: CCOC(=O)C1CC(C(=O)c2ccccc2)N2c3ccccc3-c3ccccc3C12 (centres undefined)
Reply | > 100 µM

Ask | Give its TGI value. Item: [2H]C([2H])([2H])NC(=O)c1nnc(NC(=O)C2CC2)cc1Nc1cccc(-c2ncn(C)n2)c1OC
Reply | > 100 µM

New cases:
Ask | Give its TGI value. Item: COc1cc2c(cc1OC)C(C(=O)O)C(c1ccccc1)N(C)C2=O (centres undefined)
Reply | > 100 µM

Ask | Give its TGI value. Item: C1=C(c2ccccc2)C(N2CCOCC2)Oc2ccccc21 (centres undefined)
Reply | > 100 µM

Ask | Give its TGI value. Item: C=C(C)[C@@H]1CCC=C2CC[C@]3(C)[C@H](CC[C@@H]4[C@@]5(C)CCCNC(C)(C)[C@@H]5CC[C@]43C)[C@H]21
Reply | 3.86 µM

Ask | Give its TGI value. Item: Cc1c(C(=O)C/C(=N/NC(=O)c2ccccc2)C(=O)Nc2ccc(Cl)cc2)[n+](=O)c2ccccc2n1[O-]
Reply | > 100 µM

====

Tested on: HT29 colon
Experiment: NCI tumour cell line growth inhibition, 48 h; in the data active = GI50 below about 0.43 µM; inactive = the rest
Please answer using one outcome listed in t = active, f = inactive

Examples with answers:
Ask | Check the results log: what was the call for COC(=O)c1cc(-c2ccccc2)[nH]c1N/N=C/c1c(Cl)cccc1Cl ?
Reply | t

Ask | Check the results log: what was the call for Fc1ccc(-c2ncn(C3CCNCC3)c2-c2ccnc(Oc3ccc4c(c3)OCO4)n2)cc1 ?
Reply | f

Ask | Check the results log: what was the call for NC(=N\N=C/c1ccc(O)cc1)/C(N)=N\N=C/c1ccc(O)cc1 ?
Reply | f

Ask | Check the results log: what was the call for CCOc1ccc2c(-c3ccnc(Nc4cc(OC)cc(C(F)(F)F)c4)n3)cnn2n1 ?
Reply | f

New cases:
Ask | Check the results log: what was the call for OCCCCC#Cc1ccccc1C#Cc1ccc(O)cc1 ?
Reply | f

Ask | Check the results log: what was the call for Cc1ccc(S(=O)(=O)Oc2ccc3c4c(c(=O)oc3c2)CCCCCC4)cc1 ?
Reply | f

Ask | Check the results log: what was the call for COc1c(C(C)=O)c(OCCCCOc2c(C(C)=O)c(OC)c3ccoc3c2OC)c(OC)c2occc12 ?
Reply | f

====

System: UACC-257 melanoma
Test: NCI tumour cell line growth inhibition, 48 h
# Lookup of reported GI50 keyed by entry

Ask | Give its GI50 value. Item: COc1cc2c3c(n(CCCN)c(=O)c2cc1OC)-c1ccc([N+](=O)[O-])cc1C3=O
Reply | 31 µM

Ask | Give its GI50 value. Item: CCCCC(SC(=S)N1CCCC1)C(=O)Nc1nc(CC(=O)OCC)cs1 (stereo not given)
Reply | 47.9 µM

Ask | Give its GI50 value. Item: O=C(CCN1CCCC1)Nc1ccc2c(NCc3ccccc3)c3ccccc3nc2c1
Reply | 1.45 µM

New cases:
Ask | Give its GI50 value. Item: C=C1C(=O)O[C@H]2[C@H]1CC/C(COC(=O)CCCCCC(=O)OC/C1=C/CC[C@@]3(C)O[C@H]3[C@H]3OC(=O)C(=C)[C@@H]3CC1)=C\CC[C@@]1(C)O[C@@H]21
Reply | 1.93 µM

Ask | Give its GI50 value. Item: CN(C)C(=O)Nc1nc2cc(Cl)c(Cl)cc2[nH]1
Reply | > 100 µM

====

# Lookup of reported TGI keyed by entry
System: SK-OV-3 ovarian
Test: NCI tumour cell line growth inhibition, 48 h

Ask | Query for SK-OV-3 ovarian: what TGI does the record show for CC[C@@]1(O)C(=O)OCc2c1cc1n(c2=O)Cc2c-1nc1ccc(O)cc1c2[Si](C)(C)C(C)(C)C ?
Reply | > 53 µM

Ask | Query for SK-OV-3 ovarian: what TGI does the record show for Cn1cccc1-c1ccc(-c2ccc(CO)[se]2)[se]1 ?
Reply | > 78.3 µM

Ask | Query for SK-OV-3 ovarian: what TGI does the record show for CCOC(=O)/C(C(N)=O)=C(\O)C(=O)/C(Br)=C(\O)c1ccccc1 ?
Reply | > 57.4 µM

Ask | Query for SK-OV-3 ovarian: what TGI does the record show for COc1ccc([C@H](CC(=O)O)N2CCN(CCCc3ccc4c(n3)NCCC4)C2=O)cn1 ?
Reply | > 100 µM

Ask | Query for SK-OV-3 ovarian: what TGI does the record show for COc1ccc2c(c1)/C(=C\c1ccncc1)C(=O)N2 ?
Reply | 79.9 µM

Ask | Query for SK-OV-3 ovarian: what TGI does the record show for [2H]C([2H])([2H])NC(=O)c1nnc(NC(=O)C2CC2)cc1Nc1cccc(-c2ncn(C)n2)c1OC ?
Reply | 48.9 µM

Ask | Query for SK-OV-3 ovarian: what TGI does the record show for C(/C=N/NC1=NCCCCN1)=N\NC1=NCCCCN1 ?
Reply | > 100 µM

Ask | Query for SK-OV-3 ovarian: what TGI does the record show for CN(C)Cc1ccc(-c2cc3onc(-c4ccccc4)c3c(=O)n2C)cc1 ?
Reply | > 100 µM

Ask | Query for SK-OV-3 ovarian: what TGI does the record show for O=C(NCCN1CCOCC1)OCc1nc2nc(Cl)nc(N3CCOCC3)c2[nH]1 ?
Reply | > 100 µM

Ask | Query for SK-OV-3 ovarian: what TGI does the record show for C[C@@H]1[C@@H](C)C(c2ccccc2)O[Si]1(C(C)(C)C)C(C)(C)C (stereo partly specified) ?
Reply | > 69.3 µM

New cases:
Ask | Query for SK-OV-3 ovarian: what TGI does the record show for Nc1cc2c(c3ccccc13)C(CCl)CN2C(=O)c1cc2cc(NC(=O)Nc3ccc4[nH]c(C(=O)N5CC(CCl)c6c5cc(N)c5ccccc65)cc4c3)ccc2[nH]1 (stereo unspecified) ?
Reply | > 24.3 µM

Ask | Query for SK-OV-3 ovarian: what TGI does the record show for COc1cc(/C=C/c2ccc(C)cc2)cc(OC)c1OC ?
Reply | 39 µM

Ask | Query for SK-OV-3 ovarian: what TGI does the record show for COC(=O)CCC(NC(=S)N/N=C(\C)c1ccc[nH]1)C(=O)OC (stereo unspecified) ?
Reply | > 100 µM

Ask | Query for SK-OV-3 ovarian: what TGI does the record show for O=S(=O)(NC1CCCCC1)c1ccc2c(c1)OCCOCCOCCOCCO2 ?
Reply | > 100 µM

Ask | Query for SK-OV-3 ovarian: what TGI does the record show for CC(=O)n1cc(C2CC23N=C(c2ccccc2)OC3=O)c2ccccc21 (stereo unspecified) ?
Reply | > 100 µM

Ask | Query for SK-OV-3 ovarian: what TGI does the record show for CCOC(=O)N1C/C(=C\c2ccccc2)C(=O)/C(=C/c2ccccc2)C1 ?
Reply | 27.8 µM
